Consider the following sequences; for each one, report its apparent KD of MS2 coat protein.
test system: MS2 coat protein; test: apparent KD of MS2 coat protein; designed switch direction (-1 OFF switch, 1 ON switch): -1; higher = weaker reporter binding; conditions: input ligand: FMN 200 uM
Answers are plain numbers, in µM.

CAGUCGAUAAGAUCAAUUAAUUAACAUGAGGAUCACCCAUGUGAGGAUAUCAGCUCGUGUAGAGCUGAGAAGGCACAACGACUG [ExNG3/17-A3] (Eterna round: R96, puzzle: Exclusion NG 3) :: 0.278
GACAUGAGGAUCACCCAUGUAACCUCAUGUAGGAAGGAGAGUAAGGAUAUACAUGAAGGAAUGAAGUAGAAGGUGCAUAGAGAG [Default title] (Eterna round: R96, puzzle: Exclusion NG 3) :: 0.605
ACAUGAGGAUCACCCAUGUGAAAAGAAUGGCUGACACAGAGAUAGGAUAUAUGUGCAUAUCUAACAUAGAAGGGUCAUGACUGG [Deportation 79 - Jieux - Exclusion NG 3] (Eterna round: R96, puzzle: Exclusion NG 3) :: 0.0286
UUCCUCUCUUCUCCGUCUCACAUGAGGAUCACCCAUGUAACAUAGGAUAUGCUUGGUAUUUAAAUGCAGAAGGAUGUUAGUAUU [JR_ExcNG3_Sub081] (Eterna round: R96, puzzle: Exclusion NG 3) :: 0.0766
AUUUAGCGAGGAUAUACCAACGUGAUCUUCGACUGAGCGGCACUUGAGGAUCACCCAAGUAGAAGGCGCACUAU [Onleindian] (Eterna round: R97, puzzle: Exclusion 2) :: 0.346
GUAGAGUCAGGAUAUACGAGAUCGAAAGAUCGGCGGUCCUUACAUGAGGAUCACCCAUGUAGAAGGGACUCUAC [Omei mod 6 to Eli's favorate candidate (ch.parushev)] (Eterna round: R97, puzzle: Exclusion 2) :: 0.258
AAUAGUUGAGUAGGAUAUGCAUCGACCGGCCGAGCAGAAGGACUCGUGAACUUGAGGAUCACCCAAGUGUCCUCGUUUGCUUGA [Mutated MS2 EX1.16] (Eterna round: R96, puzzle: Exclusion NG 1) :: 0.139
GUUAAUUGUGACAUGGGUGACAUGAGGAUCACCCAUGUCACAAGCUUUUUGUUCGUCUUAUAAUUAACCCAUGUCAC [Stov1/13-B2] (Eterna round: R97, puzzle: Sensor, turn-off variant 1) :: 0.0798

// for each sequence below, give its apparent KD of MS2 coat protein
1. AGCUGUGGCCGAGGAUAUUACGAACCAUGGAAAACCAUGGAAACUCUACAUGAGGAUCACCCAUGUAAGAAGGCGGUCUCAGCA [Eli eng2 - 024] (Eterna round: R96, puzzle: Exclusion NG 2)
2. CUGGUGCGCGGAGGAUAUCGGAAAGGAAGUGUACGAGAAGGUCGUUCCACCAAACAUGAGGAUCACCCAUGUAGGAGUGACCUC [PowerStrip EXNG 1.7] (Eterna round: R96, puzzle: Exclusion NG 1)
3. CCUAGUUGGUAAGGAUAUCCUACACUGUUCUGACCCGGGCAUGCUACAUGAGGAUCACCCAUGUGGGAGAAGGUGCGUCAUCGC [Design 15] (Eterna round: R96, puzzle: Exclusion NG 2)

Outgoing:
[0.0475, 0.127, 0.0305]

# map each sequence to its apparent KD of MS2 coat protein
1. UUUAAUUUAAUUAAGAUCACAUGAGGAUCACCCAUGUAUAUAUAGGAUAUCAGCUCGUUUAGAGCUGAGAAGGAUAUAUACAUA [ExNG3/4-A2] (Eterna round: R96, puzzle: Exclusion NG 3)
2. AUAAAAGCAGGAUAUGCGCGGUGUGAUGCCGCAUGCUCGUCACAUGAGGAUCACCCAUGUAGAAGGGCUAAAUG [Diramadidi] (Eterna round: R97, puzzle: Exclusion 2)
3. UGAAGUAGAGGAUAUACGUGGAAAUAGAUUCAUGUUAAUCUACAUGAGGAUCACCCAUGUAGAAGGCUAUAGAU [JR_Ex2_Sub074] (Eterna round: R97, puzzle: Exclusion 2)

Outgoing:
[0.433, 0.0193, 0.0693]

Take each entry in turn and give its apparent KD of MS2 coat protein.
1. UACGAGUUAGGAUAUGCAUUGGGCUCGCUUUCCUUCGAUAAACUUGAGGAUCACCCAAGUAGAAGGAACUUGUA [Mod 35 - Jieux - Exclusion 2] (Eterna round: R97, puzzle: Exclusion 2)
2. UUCAGUCAUCCUUAUUGUUACAUGAGGAUCACCCAUGUUUGUUUAAUUAAGUUUUGUAAGUUUGUUGUUCGUUUUAU [JR_STOV1_v2_Sub074] (Eterna round: R97, puzzle: Sensor, turn-off variant 1)
3. UCACGGGACUGAGGAUAUACAUGAACCAUUUUUGUAGAAGGCAGAAUGUUUGAUCAUACACUAAACAUGAGGAUCACCCAUGUU [JR_ExcNG1_Sub026] (Eterna round: R96, puzzle: Exclusion NG 1)
4. GGUGUGAGGCAGGAUAUGCAAUAAGUAAGUAAAGCAGAAGGGUCUACAUGAGGAUCACCCAUGUGUGCGGUAGA [Ex6 #1] (Eterna round: R97, puzzle: Exclusion 6)

Outgoing:
0.0423
0.154
0.016
0.249

----------
test system: MS2 coat protein; assay: apparent KD of MS2 coat protein; higher = weaker reporter binding; conditions: Eterna round: R107; input ligand: theophylline 20 uM
apparent KD of MS2 coat protein below 30 nM gives No; apparent KD of MS2 coat protein at or above it gives Yes.

For orientation, consider the following solved cases.
AUUCAGAGAUCACAUGAGGAUCACCCAUGUCGAGGACCGGUACGGCCGCCACUCGCGGCGGUGAAAAUAGAUACAAAGUAUCUAU [Ex_TrypA - Vienna approves #2] :: Yes
GUUAUAACAAAAGUUGUAACAGUGGGUGAACGAGGACCGGUACGGCCGCCACUCGGACAUGAGGAUCACCCAUGUCCAUGUGAAA [AstrosExyTryA#15] :: No
AUGCGGUGCGGAAGGAGCGAGUUUGCCUAUUUACAUGAGGAUCACCCAUGUCCUAAUGGGACUCAGGUAGGUCGCCGUUGUCGCA [Same State Arginine B GF 29] :: Yes

Incoming: Hi, just wondering whether UUGGGUUUGUGAAGGAGCGGGAAAGUUAUAUAGUUAAUCCUAACAUGAGGAUCACCCAUGUCCCAGGUAGGUCGCGCGGGUUUGG [12.P] shows apparent KD of MS2 coat protein of 30 nM or higher.
Outgoing: Yes

Incoming: Form field: apparent KD of MS2 coat protein at least 30 nM? Entry: UUAUAAGUACCGGUCCUCAGAUCCUCAUGACGAGGACCGGUACGGCCGCCACUCGAAACAUGAGGAUCACCCAUGUAAUAACAUU [Brourdmod19]
Outgoing: No

Incoming: Does the reported apparent KD of MS2 coat protein for CAGAGCUACCGGGAUACCAGAAAUGGUAUUCCUUAAUUUCUUACAUGAGGAUCACCCAUGUUCCCUUGGCAGCUUGGUAGCUCUG [ETHB #8] fall at or above the 30 nM mark?
Outgoing: Yes

Incoming: Exam item: decide whether the reported apparent KD of MS2 coat protein for GCACGACAUGAGGAUCACCCAUGUGCAGAUACCAGUAAUGUAUGUUACCCUUGGCAGCUGAGUAGGUCUGGAGGGCUAUAGGUAA [Same State Theophylline A GF12] is at least 30 nM.
Outgoing: No

Incoming: Hi, just wondering whether CACAUGAGGAUCACCCAUGUCUGAACUGAAGGAGCGCUAAACAAGGCAGGUAGGUCGCGGAAUCCCGUGUGCAUAUGCACACGGG [9.Z] shows apparent KD of MS2 coat protein of 30 nM or higher.
Outgoing: No

Incoming: # bool: apparent KD of MS2 coat protein of AAUAUAAUAGACUCGUUUUAGUAUUUGGAACGAGGACCGGUACGGCCGCCACUCGUGAUUUACAUGAGGAUCACCCAUGUUAGCA [JR_SSTryptoA_Sub003] >= 30 nM
Outgoing: No

Incoming: Quick check: does UCCUCCUCCGCAAGGAGGAGGAGUUGCGAUACCAGCCCGGAAACGGGCCCUUGGCAGCGCACAUGAGGAUCACCCAUGUCAUGUU [#1 Exclusion - Theophylline A Attempt #8 (HarryS)] have apparent KD of MS2 coat protein greater than or equal to 30 nM?
Outgoing: No

Incoming: Is apparent KD of MS2 coat protein for CCAUGCAGGUCGGCCGCCACUACACACAUGAGGAUCACCCAUGUAGUUACUGGGUGAAGUGGCAGUAGGACCGGGACCUGCACAC [Brourdmod20] at or above 30 nM?
Outgoing: Yes

----------
Assignment: determine reported apparent KD of MS2 coat protein for the given sequences.
system: MS2 coat protein; experiment: apparent KD of MS2 coat protein; designed switch direction (-1 OFF switch, 1 ON switch): -1; higher = weaker reporter binding; conditions: input ligand: microRNA oligo, concentration not stated
Answers are plain numbers, in nM.

AAAAAAUAAAAAACAAGCUACAUGAGGAUCACCCAUGUUACAAAAAUAAAAUAAAAAUAAAAUAAAAGUAAAAUGGG [Sensor V2: 75 Random] (Eterna round: R96, puzzle: Sensor v2, turn-off variant) :: 78.2

// each sequence listed below needs its apparent KD of MS2 coat protein
1. UGACGAGUAGGAUAUUGGACUUGCGACAUGAGGAUCACCCAUGUGACGUCAACGUGGCACCAAGAAGGGCUACGUC [Gelareusdi] (Eterna round: R96, puzzle: Exclusion 5)
2. AGUACUAACACGAAAGUGUUAGUACUAUAAGCUUGUGAUACAUGAGGAUCACCCAUGUCCUCAUAAGCUCGUCUUAU [Mat - Sensor v3 - Turn-off var 2 - D101] (Eterna round: R96, puzzle: Sensor v3, turn-off variant 2)
3. CACCGUUACAGAGGAUAUGGUACAUGAGGAUCACCCAUGUAAUAAAUGAGAAUUUCGAAUGUAAUCCAGAAGGCUGGAAUCGGC [Ostricism 74 - Jieux - Exclusion NG 2] (Eterna round: R96, puzzle: Exclusion NG 2)

Outgoing:
1. 49.3
2. 477
3. 85.2

Hey, quick one: what's apparent KD of MS2 coat protein for each of these?
1. UCACUACCGCAAGGAUAUGUUGUCUGACACGCUGCGUGACAUGAGGAUCACCCAUGUGCUAGUUCGCAGAAGGUGCGGAAUGUG [Eternabot solution 34] (Eterna round: R96, puzzle: Exclusion NG 2)
2. AAACGGCAGGGAGGAUAUGCUUGCCUGGGUCGUCUUCAAACAUGAGGAUCACCCAUGUAGUCGACGCAGAAGGCCCUCAAAGCC [JL ViennaUCT Ontiis mod 4] (Eterna round: R96, puzzle: Exclusion NG 2)
3. UCACGGGACUGAGGAUAUACAUCAACAAUGGUUGUAGAAGGCAGAAGGUUGAAUCAUAUACUAAACAUGAGGAUCACCCAUGUU [JR_ExcNG1_Sub031] (Eterna round: R96, puzzle: Exclusion NG 1)

Outgoing:
1: 9.98; 2: 8.85; 3: 16.6

Give measured apparent KD of MS2 coat protein for every item shown.
1. GGAGGACGAGCAGGAUAUUUUUACAUGAGGAUCACCCAUGUGUACUCAGGGUAAUCCUCCGCCGAAAAGAAGGGUUCGGAAGAA [JL ViennaUCT Socedi mod 4] (Eterna round: R96, puzzle: Exclusion NG 2)
2. CUGGUGCGCGGAGGAUAUCGGAAAGGAAGUGUACGAGAAGGUCGUUCCACCAAACAUGAGGAUCACCCAUGUAGGAGUGACCUC [PowerStrip EXNG 1.7] (Eterna round: R96, puzzle: Exclusion NG 1)

Outgoing:
1. 41.6
2. 45.6
